Biological target: Muscarinic acetylcholine receptor M2 (Homo sapiens, UniProt P08172)
Sequence (P08172 whole entry): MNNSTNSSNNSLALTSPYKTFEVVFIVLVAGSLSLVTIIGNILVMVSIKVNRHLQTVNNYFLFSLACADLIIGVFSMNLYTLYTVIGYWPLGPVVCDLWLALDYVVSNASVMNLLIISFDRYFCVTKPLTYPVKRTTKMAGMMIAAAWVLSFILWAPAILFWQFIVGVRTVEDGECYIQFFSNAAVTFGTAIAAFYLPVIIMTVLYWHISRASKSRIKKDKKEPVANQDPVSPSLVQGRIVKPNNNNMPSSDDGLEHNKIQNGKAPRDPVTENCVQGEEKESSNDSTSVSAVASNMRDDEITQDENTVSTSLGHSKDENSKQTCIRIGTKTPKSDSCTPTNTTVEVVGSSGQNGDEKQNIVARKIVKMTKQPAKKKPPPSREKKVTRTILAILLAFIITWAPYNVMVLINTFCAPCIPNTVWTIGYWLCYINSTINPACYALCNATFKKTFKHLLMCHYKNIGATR
Test: Binding affinity towards human muscarinic M2 receptor in CHO-KI cells using [3H]- QNB as radioligand
pKi: −log10 of the molar value.
Listed below: pKi values for each entry.

Please review the entries below; each comes with its answer.
C[C@@H]1OC(=O)[C@H]2C[C@H]3CCCC[C@@H]3[C@@H](CCCN3CCC(O)CC3)[C@@H]12 = < 6.55
CC1CN(CCC[C@@H]2[C@H]3CCCC[C@@H]3C[C@@H]3C(=O)O[C@@H](C)[C@H]23)CC(C)N1 (stereo not given in full) = < 6.30
C[C@@H]1OC(=O)[C@H]2C[C@H]3CCCC[C@@H]3[C@@H](CCCN3CCNCC3)[C@@H]12 = < 7.38
C[C@@H]1CN(CCC[C@@H]2[C@H]3CCCC[C@@H]3C[C@@H]3C(=O)O[C@@H](C)[C@H]23)CCN1 = < 6.30

Consider the additional compound presented here.
Q: Suppose we examine the compound C[C@@H]1OC(=O)[C@H]2C[C@H]3CCCC[C@@H]3[C@@H](CCCN3CCN[C@@H](C)C3)[C@@H]12 ; what pKi value has been reported?
A: < 6.30

Taken from ChEMBL document CHEMBL1132081.
